Molecular target: PDPK1 (human) (UniProt O15530)
Sequence (O15530 whole entry, looked up): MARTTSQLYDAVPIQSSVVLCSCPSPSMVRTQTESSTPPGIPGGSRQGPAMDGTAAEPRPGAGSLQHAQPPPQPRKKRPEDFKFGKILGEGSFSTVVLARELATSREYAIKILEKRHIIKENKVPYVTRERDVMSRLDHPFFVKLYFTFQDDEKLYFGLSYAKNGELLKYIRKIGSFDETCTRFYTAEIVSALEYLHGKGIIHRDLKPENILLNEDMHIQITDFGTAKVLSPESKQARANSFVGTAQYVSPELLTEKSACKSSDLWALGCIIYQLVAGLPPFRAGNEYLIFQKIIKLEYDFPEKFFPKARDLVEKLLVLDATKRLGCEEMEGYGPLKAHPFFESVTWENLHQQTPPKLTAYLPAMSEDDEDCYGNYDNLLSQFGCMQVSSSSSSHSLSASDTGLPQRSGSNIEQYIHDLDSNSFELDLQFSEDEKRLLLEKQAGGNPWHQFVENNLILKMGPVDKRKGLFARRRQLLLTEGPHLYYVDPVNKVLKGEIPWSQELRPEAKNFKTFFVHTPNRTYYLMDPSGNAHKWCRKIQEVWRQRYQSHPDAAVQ
Test: radiometric filter-binding kinase assay
Details: compound 100.0 µM; ATP 20 µM
Parameter: inhibition. Scope: all listed entries.
Write the value in % as a bare number.

Answered cases to consult:
MOLECULE	TARGET_OR_SYSTEM	UNIT_TEXT	inhibition
O=C(Nc1cnc2[nH]ccn2c1=O)c1ccccc1	PDPK1 (human) (UniProt O15530)	%	14
Nc1cnc2c(-c3c(F)cccc3F)cccn2c1=O	PDPK1 (human) (UniProt O15530)	%	20
CC(=O)Nc1nc2cnc(-c3ccccc3)cn2n1	PDPK1 (human) (UniProt O15530)	%	15
CC(C)(C)Nc1c(C2CC2)nc2[nH]cnn12	PDPK1 (human) (UniProt O15530)	%	3
O=c1cc(-c2ccccc2F)nc2[nH]ccn12	PDPK1 (human) (UniProt O15530)	%	2

Can you share its inhibition? I mean this molecule: Nc1nc2cnc(-c3ccccc3)cn2n1 35

Follow-up item: O=C(c1cccc(-c2cc3c(=O)[nH]cnc3s2)c1)N1CCOCC1 16

Follow-up item: Cc1cccc(C)c1-c1cn2nc(N)nc2cn1 15

Follow-up item: CC(=O)Nc1nc2cnc(-c3c(C)cccc3C)cn2n1 0

Follow-up item: CC1CN(c2nc3ccccn3c(=O)c2N)CC(C)O1 (stereo not given) 31

Follow-up item: COc1ccc(-c2cc3c(=O)[nH]cnc3s2)cc1OC 41

Follow-up item: O=C(Nc1cnc2[nH]cnn2c1=O)c1ccccc1 1

Follow-up item: CC(C)(C)Nc1c(COCc2ccccc2)nc2[nH]cnn12 13

Follow-up item: COc1ccc(NC(=S)Nc2cnc3[nH]cnn3c2=O)cn1 29

Follow-up item: O=c1c(NC(=S)NCc2ccccc2)cnc2[nH]ccn12 0

* * *

Molecular target: PIM1 (human) (UniProt P11309)
Sequence (P11309 whole entry, looked up): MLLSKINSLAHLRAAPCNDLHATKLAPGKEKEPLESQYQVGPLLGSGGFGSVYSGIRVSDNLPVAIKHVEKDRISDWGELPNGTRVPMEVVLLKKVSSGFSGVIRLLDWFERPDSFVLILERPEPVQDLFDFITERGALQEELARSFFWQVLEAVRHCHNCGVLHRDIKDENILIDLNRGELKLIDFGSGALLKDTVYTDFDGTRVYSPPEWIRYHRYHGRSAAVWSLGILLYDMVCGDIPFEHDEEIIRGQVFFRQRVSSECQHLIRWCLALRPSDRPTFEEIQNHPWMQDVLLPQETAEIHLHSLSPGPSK
Test: radiometric filter-binding kinase assay
Conditions: compound 100.0 µM; ATP 20 µM
Decision: inhibition >= 10% yields T, all other cases yield F.

COMPOUND	GROUP
CC(=O)Nc1nc2cnc(-c3ccccc3)cn2n1	T
CC(C)(C)Nc1c(COCc2ccccc2)nc2[nH]cnn12	T
COc1ccc(-c2cc3c(=O)[nH]cnc3s2)cc1OC	T

Can CC1CN(c2nc3ccccn3c(=O)c2N)CC(C)O1 (stereo not given) be said to have inhibition at or above 10%? F

Follow-up item: CC(C)(C)Nc1c(C2CC2)nc2[nH]cnn12 T

Follow-up item: Nc1nc2cnc(-c3ccccc3)cn2n1 T

Follow-up item: Nc1cnc2c(-c3c(F)cccc3F)cccn2c1=O T

Follow-up item: O=C(Nc1cnc2[nH]cnn2c1=O)c1ccccc1 F

Follow-up item: O=c1c(NC(=S)NCc2ccccc2)cnc2[nH]ccn12 F

Follow-up item: O=c1cc(-c2ccccc2F)nc2[nH]ccn12 T

Follow-up item: O=C(c1cccc(-c2cc3c(=O)[nH]cnc3s2)c1)N1CCOCC1 T

* * *

Parameter: inhibition. Scope: all listed entries.
Biological target: NEK2 (human)
Experiment: radiometric filter-binding kinase assay
Conditions: compound 100.0 µM; ATP 50 µM
Express your answer as a number followed by its unit.

Answered cases to consult:
COMPOUND	TARGET_OR_SYSTEM	inhibition
CC(C)(C)Nc1c(COCc2ccccc2)nc2[nH]cnn12	NEK2 (human)	6%
Nc1cnc2c(-c3c(F)cccc3F)cccn2c1=O	NEK2 (human)	0%
O=C(Nc1cnc2[nH]ccn2c1=O)c1ccccc1	NEK2 (human)	6%
O=C(Nc1cnc2[nH]cnn2c1=O)c1ccccc1	NEK2 (human)	0%
Cc1cccc(C)c1-c1cn2nc(N)nc2cn1	NEK2 (human)	38%
O=C(c1cccc(-c2cc3c(=O)[nH]cnc3s2)c1)N1CCOCC1	NEK2 (human)	2%
Nc1nc2cnc(-c3ccccc3)cn2n1	NEK2 (human)	77%
COc1ccc(-c2cc3c(=O)[nH]cnc3s2)cc1OC	NEK2 (human)	0%

Under NEK2 (human): inhibition value of O=c1cc(-c2ccccc2F)nc2[nH]ccn12 ? 29%

Follow-up item: CC(=O)Nc1nc2cnc(-c3c(C)cccc3C)cn2n1 0%

Follow-up item: CC1CN(c2nc3ccccn3c(=O)c2N)CC(C)O1 (stereo not given) 0%

Follow-up item: CC(=O)Nc1nc2cnc(-c3ccccc3)cn2n1 25%

Follow-up item: CC(C)(C)Nc1c(C2CC2)nc2[nH]cnn12 0%

Follow-up item: O=c1c(NC(=S)NCc2ccccc2)cnc2[nH]ccn12 4%

Follow-up item: COc1ccc(NC(=S)Nc2cnc3[nH]cnn3c2=O)cn1 0%

* * *

Tested on: LCK (mouse)
Assay: radiometric filter-binding kinase assay
Conditions: compound 100.0 µM; ATP 50 µM; accession and sequence are those of the human protein
PROPERTY_MEASURED: inhibition (%)
Write the value in % as a bare number.

Answered cases to consult:
COMPOUND	PROPERTY_MEASURED	NUMERIC_READOUT
CC(=O)Nc1nc2cnc(-c3c(C)cccc3C)cn2n1	inhibition	0
O=C(c1cccc(-c2cc3c(=O)[nH]cnc3s2)c1)N1CCOCC1	inhibition	40
O=C(Nc1cnc2[nH]ccn2c1=O)c1ccccc1	inhibition	23

Can you share its inhibition? I mean this compound: CC(C)(C)Nc1c(C2CC2)nc2[nH]cnn12 0

Follow-up item: COc1ccc(-c2cc3c(=O)[nH]cnc3s2)cc1OC 29

Follow-up item: CC(=O)Nc1nc2cnc(-c3ccccc3)cn2n1 29

Follow-up item: O=C(Nc1cnc2[nH]cnn2c1=O)c1ccccc1 18

Follow-up item: COc1ccc(NC(=S)Nc2cnc3[nH]cnn3c2=O)cn1 0

Follow-up item: Nc1cnc2c(-c3c(F)cccc3F)cccn2c1=O 39

* * *

Parameter: inhibition. Scope: all listed entries.
Test system: LCK (mouse)
Test: radiometric filter-binding kinase assay
Conditions: compound 100.0 µM; ATP 50 µM; accession and sequence are those of the human protein
Write the value in % as a bare number.

Answered cases to consult:
STRUCTURE_SMILES	PROPERTY_MEASURED	NUMERIC_READOUT
O=c1c(NC(=S)NCc2ccccc2)cnc2[nH]ccn12	inhibition	0
Cc1cccc(C)c1-c1cn2nc(N)nc2cn1	inhibition	37

Consider the additional molecule presented here.
Can you share its inhibition? I mean this molecule: O=c1cc(-c2ccccc2F)nc2[nH]ccn12 23

* * *

Target: MAPK15 (human) (UniProt Q8TD08)
Sequence (Q8TD08 whole entry, looked up): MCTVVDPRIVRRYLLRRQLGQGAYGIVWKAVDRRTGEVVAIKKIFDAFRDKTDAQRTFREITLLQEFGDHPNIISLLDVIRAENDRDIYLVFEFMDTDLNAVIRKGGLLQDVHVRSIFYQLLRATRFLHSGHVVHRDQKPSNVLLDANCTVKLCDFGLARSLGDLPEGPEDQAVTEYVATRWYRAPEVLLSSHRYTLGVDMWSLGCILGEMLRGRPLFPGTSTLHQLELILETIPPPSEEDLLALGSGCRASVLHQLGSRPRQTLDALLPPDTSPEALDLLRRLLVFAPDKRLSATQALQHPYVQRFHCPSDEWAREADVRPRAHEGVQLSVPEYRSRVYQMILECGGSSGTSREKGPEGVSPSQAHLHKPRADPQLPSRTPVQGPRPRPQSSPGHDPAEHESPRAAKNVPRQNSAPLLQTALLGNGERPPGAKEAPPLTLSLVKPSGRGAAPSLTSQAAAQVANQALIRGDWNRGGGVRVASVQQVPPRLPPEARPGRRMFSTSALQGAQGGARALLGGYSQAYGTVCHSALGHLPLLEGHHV
Assay: radiometric filter-binding kinase assay
Conditions: compound 100.0 µM; ATP 5 µM
Decision: inhibition >= 7% yields MET, all other cases yield NOT MET.

MOLECULE	GROUP
CC(C)(C)Nc1c(COCc2ccccc2)nc2[nH]cnn12	NOT MET
Nc1cnc2c(-c3c(F)cccc3F)cccn2c1=O	MET
O=c1c(NC(=S)NCc2ccccc2)cnc2[nH]ccn12	NOT MET
Nc1nc2cnc(-c3ccccc3)cn2n1	MET
CC(C)(C)Nc1c(C2CC2)nc2[nH]cnn12	MET

Can O=C(c1cccc(-c2cc3c(=O)[nH]cnc3s2)c1)N1CCOCC1 be said to have inhibition at or above 7%? MET

Follow-up item: CC(=O)Nc1nc2cnc(-c3ccccc3)cn2n1 MET

Follow-up item: O=C(Nc1cnc2[nH]cnn2c1=O)c1ccccc1 NOT MET

Follow-up item: O=c1cc(-c2ccccc2F)nc2[nH]ccn12 MET

Follow-up item: CC1CN(c2nc3ccccn3c(=O)c2N)CC(C)O1 (stereo not given) NOT MET

* * *

Parameter: inhibition. Scope: all listed entries.
Target: UniProtKB P14616
Sequence (P14616 whole entry, looked up): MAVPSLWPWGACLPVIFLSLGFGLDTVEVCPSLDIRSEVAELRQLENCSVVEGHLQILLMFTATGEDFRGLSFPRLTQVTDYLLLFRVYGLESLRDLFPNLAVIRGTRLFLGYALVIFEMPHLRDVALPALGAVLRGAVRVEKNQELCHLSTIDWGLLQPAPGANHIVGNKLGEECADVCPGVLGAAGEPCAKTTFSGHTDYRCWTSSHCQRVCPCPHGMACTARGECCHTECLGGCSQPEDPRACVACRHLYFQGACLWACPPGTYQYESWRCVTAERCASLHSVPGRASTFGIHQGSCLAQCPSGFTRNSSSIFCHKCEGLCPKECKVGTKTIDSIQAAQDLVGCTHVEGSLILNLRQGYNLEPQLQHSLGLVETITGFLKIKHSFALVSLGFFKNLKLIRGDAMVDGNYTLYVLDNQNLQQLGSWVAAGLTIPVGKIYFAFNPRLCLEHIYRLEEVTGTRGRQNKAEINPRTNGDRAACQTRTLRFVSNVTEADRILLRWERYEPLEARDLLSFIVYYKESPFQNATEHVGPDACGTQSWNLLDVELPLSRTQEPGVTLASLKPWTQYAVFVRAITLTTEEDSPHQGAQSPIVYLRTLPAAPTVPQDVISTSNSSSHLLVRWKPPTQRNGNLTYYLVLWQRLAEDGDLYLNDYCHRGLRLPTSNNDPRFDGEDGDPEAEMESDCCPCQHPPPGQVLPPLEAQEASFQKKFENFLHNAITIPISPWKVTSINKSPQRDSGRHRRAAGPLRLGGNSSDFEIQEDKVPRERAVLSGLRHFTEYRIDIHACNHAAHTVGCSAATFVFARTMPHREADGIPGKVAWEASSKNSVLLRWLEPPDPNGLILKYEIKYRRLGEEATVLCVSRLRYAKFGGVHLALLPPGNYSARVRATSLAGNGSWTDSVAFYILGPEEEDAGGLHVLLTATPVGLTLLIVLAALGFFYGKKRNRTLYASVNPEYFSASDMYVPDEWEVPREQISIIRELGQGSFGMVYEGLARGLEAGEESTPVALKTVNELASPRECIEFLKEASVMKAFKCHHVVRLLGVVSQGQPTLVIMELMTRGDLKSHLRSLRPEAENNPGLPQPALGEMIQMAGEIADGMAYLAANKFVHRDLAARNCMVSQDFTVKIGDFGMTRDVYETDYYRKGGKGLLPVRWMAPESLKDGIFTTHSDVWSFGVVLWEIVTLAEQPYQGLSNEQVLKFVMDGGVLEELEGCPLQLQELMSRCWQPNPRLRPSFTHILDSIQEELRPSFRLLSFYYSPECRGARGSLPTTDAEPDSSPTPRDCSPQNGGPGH
Assay: radiometric filter-binding kinase assay
Settings: compound 100.0 µM; ATP 5 µM
Express your answer as a number followed by its unit.

Answered cases to consult:
COMPOUND	RESULT
COc1ccc(NC(=S)Nc2cnc3[nH]cnn3c2=O)cn1	0%
CC(C)(C)Nc1c(C2CC2)nc2[nH]cnn12	0%
Nc1cnc2c(-c3c(F)cccc3F)cccn2c1=O	51%
CC1CN(c2nc3ccccn3c(=O)c2N)CC(C)O1 (configuration not stated)	1%
Nc1nc2cnc(-c3ccccc3)cn2n1	71%
COc1ccc(-c2cc3c(=O)[nH]cnc3s2)cc1OC	0%

Consider the additional compound presented here.
Can you share its inhibition? I mean this compound: O=C(Nc1cnc2[nH]cnn2c1=O)c1ccccc1 0%

* * *

Molecular target: UniProt Q16513
Sequence (Q16513 whole entry, looked up): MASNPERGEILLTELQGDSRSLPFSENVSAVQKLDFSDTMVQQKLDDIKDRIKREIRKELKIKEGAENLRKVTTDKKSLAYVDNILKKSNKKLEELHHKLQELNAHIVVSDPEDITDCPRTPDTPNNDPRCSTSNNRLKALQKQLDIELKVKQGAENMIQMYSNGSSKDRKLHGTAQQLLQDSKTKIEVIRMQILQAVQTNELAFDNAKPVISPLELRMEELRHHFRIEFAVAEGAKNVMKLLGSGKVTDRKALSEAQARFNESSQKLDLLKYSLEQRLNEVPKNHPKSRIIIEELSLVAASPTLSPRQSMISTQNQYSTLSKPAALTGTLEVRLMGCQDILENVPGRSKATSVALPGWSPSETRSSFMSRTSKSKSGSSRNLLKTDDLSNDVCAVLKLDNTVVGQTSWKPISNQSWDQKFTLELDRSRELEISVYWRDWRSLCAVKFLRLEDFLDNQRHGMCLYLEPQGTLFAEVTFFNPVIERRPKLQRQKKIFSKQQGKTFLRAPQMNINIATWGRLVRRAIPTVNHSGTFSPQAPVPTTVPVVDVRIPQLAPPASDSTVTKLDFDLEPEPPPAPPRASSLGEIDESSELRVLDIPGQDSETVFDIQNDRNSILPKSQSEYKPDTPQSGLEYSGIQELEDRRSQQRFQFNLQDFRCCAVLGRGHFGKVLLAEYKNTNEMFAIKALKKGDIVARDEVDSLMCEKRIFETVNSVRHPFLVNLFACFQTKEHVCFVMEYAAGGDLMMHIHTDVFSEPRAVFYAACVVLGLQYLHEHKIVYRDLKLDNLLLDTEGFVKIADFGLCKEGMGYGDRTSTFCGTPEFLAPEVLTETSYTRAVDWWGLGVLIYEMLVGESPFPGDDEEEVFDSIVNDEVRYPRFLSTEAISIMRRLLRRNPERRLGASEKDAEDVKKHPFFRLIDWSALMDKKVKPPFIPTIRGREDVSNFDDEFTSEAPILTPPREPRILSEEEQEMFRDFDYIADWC
Assay: radiometric filter-binding kinase assay
Details: compound 100.0 µM; ATP 5 µM
PROPERTY_MEASURED: inhibition (%)
Write the value in % as a bare number.

Answered cases to consult:
MOLECULE	UNIT_TEXT	inhibition
O=C(c1cccc(-c2cc3c(=O)[nH]cnc3s2)c1)N1CCOCC1	%	0
O=c1cc(-c2ccccc2F)nc2[nH]ccn12	%	2
Cc1cccc(C)c1-c1cn2nc(N)nc2cn1	%	93
O=C(Nc1cnc2[nH]cnn2c1=O)c1ccccc1	%	0
COc1ccc(-c2cc3c(=O)[nH]cnc3s2)cc1OC	%	0

Can you share its inhibition? I mean this molecule: Nc1nc2cnc(-c3ccccc3)cn2n1 44

Follow-up item: O=C(Nc1cnc2[nH]ccn2c1=O)c1ccccc1 0

Follow-up item: O=c1c(NC(=S)NCc2ccccc2)cnc2[nH]ccn12 0

Follow-up item: COc1ccc(NC(=S)Nc2cnc3[nH]cnn3c2=O)cn1 1

Follow-up item: CC(C)(C)Nc1c(C2CC2)nc2[nH]cnn12 17

Follow-up item: CC(C)(C)Nc1c(COCc2ccccc2)nc2[nH]cnn12 16
